assay: Cytotoxicity against MDCK cells assessed reduction in cell viability after 48 hrs by MTT assay; type: cell-based, Canis lupus familiaris; details: dog, read-out: CTD50
Some compounds, each annotated with its measured log10 CC50 at 48 h.
Measured Parameter: log10 CC50 at 48 h (log10 of the value in µM)

- Item Smiles: "CC(=O)C1=C(O)C=C2Oc3c(C(=O)CSCc4ccc(C)cc4)c(O)c(C)c(O)c3[C@@]2(C)C1=O"
  Measured Parameter: "log10 CC50 at 48 h"
  Reported: 0.32
- Item Smiles: "COc1c(C)c(O)c2c(c1C(=O)CSc1nc3ccccc3o1)OC1=CC(O)=C(C(C)=O)C(=O)[C@]12C"
  Measured Parameter: "log10 CC50 at 48 h"
  Reported: 2.25
- Item Smiles: "COc1ccccc1/C=C/C(=O)c1c(O)c(C)c(OC)c2c1OC1=Cc3c(c(C)nn3-c3ccccc3)[C@@H](O)[C@@]12C"
  Measured Parameter: "log10 CC50 at 48 h"
  Reported: 2.96
- Item Smiles: "CC(=O)c1c(O)c(C)c(O)c2c1OC1=CC(=O)/C(=C(/C)NCCC(=O)O)C(=O)[C@@]12C"
  Measured Parameter: "log10 CC50 at 48 h"
  Reported: 2.17
- Item Smiles: "CC(=O)C1=C(O)C=C2Oc3c4c(c(C)c(O)c3[C@@]2(C)C1=O)O/C(=C\\c1ccncc1)C4=O"
  Measured Parameter: "log10 CC50 at 48 h"
  Reported: 1.67
- Item Smiles: "COc1c(C)c(O)c(C(=O)/C=C/c2ccc(SC)cc2)c2c1[C@]1(C)C(=Cc3c(c(C)nn3-c3ccccc3)[C@H]1O)O2"
  Measured Parameter: "log10 CC50 at 48 h"
  Reported: 2.72
- Item Smiles: "CC(=O)c1c(O)c(C)c(O)c2c1OC1=CC(=O)/C(=C(/C)NCCCC(=O)O)C(=O)[C@@]12C"
  Measured Parameter: "log10 CC50 at 48 h"
  Reported: 2.11
- Item Smiles: "COc1c(C)c(O)c(C(=O)/C=C/c2ccc(Cl)cc2)c2c1[C@@]1(C)C(=Cc3c(c(C)nn3-c3ccccc3)[C@@H]1O)O2"
  Measured Parameter: "log10 CC50 at 48 h"
  Reported: 2.06
- Item Smiles: "CC(=O)C1=C(O)C=C2Oc3c(C(=O)CSCc4ncccc4C(=O)O)c(O)c(C)c(O)c3[C@@]2(C)C1=O"
  Measured Parameter: "log10 CC50 at 48 h"
  Reported: 2.25
- Item Smiles: "CC(=O)C1=C(O)C[C@H]2Oc3c(C(C)=O)c(O)c(C)c(O)c3[C@@]2(C)C1=O"
  Measured Parameter: "log10 CC50 at 48 h"
  Reported: 1.16
- Item Smiles: "CC(=O)c1c(O)c(C)c(O)c2c1OC1=CC(=O)/C(=C(/C)N[C@H](CC(=O)O)CC(C)C)C(=O)[C@]12C"
  Measured Parameter: "log10 CC50 at 48 h"
  Reported: 1.52
- Item Smiles: "CC(=O)c1c(O)c(C)c(O)c2c1OC1=CC(=O)/C(=C(/C)NCCC(=O)O)C(=O)[C@]12C"
  Measured Parameter: "log10 CC50 at 48 h"
  Reported: 2.16
- Item Smiles: "CC(=O)c1c(O)c(C)c(O)c2c1OC1=CC(=O)/C(=C(/C)N[C@@H](CC(C)C)C(=O)O)C(=O)[C@@]12C"
  Measured Parameter: "log10 CC50 at 48 h"
  Reported: 1.12
- Item Smiles: "CC(=O)c1c(O)c(C)c(O)c2c1OC1=CC(=O)/C(=C(/C)NCC(=O)O)C(=O)[C@]12C"
  Measured Parameter: "log10 CC50 at 48 h"
  Reported: 2.18
- Item Smiles: "COc1cccc(/C=C/C(=O)c2c(O)c(C)c(OC)c3c2OC2=Cc4c(c(C)nn4-c4ccccc4)C(=O)[C@@]23C)c1OC"
  Measured Parameter: "log10 CC50 at 48 h"
  Reported: 1.54
- Item Smiles: "CC(=O)c1c(O)c(C)c(O)c2c1OC1=Cc3c(c(C)nn3-c3cccc(C(F)(F)F)c3)C(=O)[C@@]12C"
  Measured Parameter: "log10 CC50 at 48 h"
  Reported: 3.04

Origin of measurements: ChEMBL document CHEMBL3352088
